Biological target: T1, huIL-17RA-FLAG-polyHis (human, UniProt Q96F46 33-320)
T1 construct: also called IL-17RA-FLAG-pHis; wild-type IL-17RA
Assay: binning; IL-17RA held by bead mAb Q
Listed next: entries and their corresponding normalized MFI.
Quantity Measured: normalized MFI

Binder: AMH6/AML6 (antibody, IgG2, V domains shown, human mAb from IgG2 XenoMouse mice; also called AM-6; antibody E) VH: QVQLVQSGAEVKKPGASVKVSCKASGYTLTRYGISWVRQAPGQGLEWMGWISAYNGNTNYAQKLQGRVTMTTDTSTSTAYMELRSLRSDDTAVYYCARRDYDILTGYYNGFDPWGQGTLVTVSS VL: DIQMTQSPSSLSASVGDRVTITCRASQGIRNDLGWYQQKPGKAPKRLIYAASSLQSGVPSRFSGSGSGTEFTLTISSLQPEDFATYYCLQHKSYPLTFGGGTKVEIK
Test Result: 2390

Binder: AMH8/AML8 (antibody, IgG2, V domains shown, human mAb from IgG2 XenoMouse mice; also called AM-8; antibody C) VH: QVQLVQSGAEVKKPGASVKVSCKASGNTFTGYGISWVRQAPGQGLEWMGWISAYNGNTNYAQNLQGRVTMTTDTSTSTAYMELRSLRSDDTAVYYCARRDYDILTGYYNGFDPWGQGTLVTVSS VL: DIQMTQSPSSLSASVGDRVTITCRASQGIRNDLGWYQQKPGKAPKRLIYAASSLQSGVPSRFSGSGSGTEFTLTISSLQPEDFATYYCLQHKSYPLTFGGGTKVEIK
Test Result: 5500
